subjectOfTest: OsSMF1 (Oryza sativa, UniProt Q6ZLB0 1-436)
Sequence: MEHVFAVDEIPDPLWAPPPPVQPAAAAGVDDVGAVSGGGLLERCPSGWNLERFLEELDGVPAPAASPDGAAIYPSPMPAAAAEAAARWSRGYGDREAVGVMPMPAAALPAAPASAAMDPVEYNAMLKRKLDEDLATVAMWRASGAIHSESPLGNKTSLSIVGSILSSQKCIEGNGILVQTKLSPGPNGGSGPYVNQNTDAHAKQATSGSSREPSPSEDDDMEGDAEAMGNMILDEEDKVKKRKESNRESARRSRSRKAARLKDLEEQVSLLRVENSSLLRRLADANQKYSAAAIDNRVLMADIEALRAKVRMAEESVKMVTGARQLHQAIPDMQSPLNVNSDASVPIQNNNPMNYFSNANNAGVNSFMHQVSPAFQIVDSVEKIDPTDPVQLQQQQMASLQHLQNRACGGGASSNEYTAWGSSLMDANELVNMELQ
experiment: protein-binding microarray (RPBM); PBS, 2% BSA, 51.3 ng/ul salmon testes DNA, 50 uM zinc acetate, 200 nM TF, 25 C, 1 h; high values mean tight binding
measurementConditions: protein: recombinant; tags: N-terminal polyhistidine and DsRed monomer fusion (pET32a); chain copies: 2; label: CyDye5-dUTP incorporated in the synthesized complementary strand; 3' TTTTT single-stranded linker to array surface; dsDNA, one strand shown
In all, about 39,000 sequences were measured (“fluorescence intensity (a.u.)”: median about 4,300, highest 2% from about 39,000 on). What follows is part of a selection rich in the highest values, with near analogues and random picks from the rest.
endpointName: binding signal

Quick one: binding signal of GAACATATCACATGCTCATATCAAAATTTATAATATTAAACGGAGTCACCTAGTGCAG ?
35200 fluorescence intensity (a.u.)

// query binding signal value for entry ATCTCTAAACACCAAATTTGACACCGATCCACGTGCACACCGGAGTCACCTAGTGCAG
7210 fluorescence intensity (a.u.)

Returns the measured binding signal for the input sequence. Input: TTTCGCCATTTCCGACAATGTACTTCACCACTGATCTGAACGGAGTCACCTAGTGCAG
64900 fluorescence intensity (a.u.)

Endpoint output: binding signal of TCTTTGGTGATGGATAATAACCCGATATAAACAATATAGACGGAGTCACCTAGTGCAG . Value?
65000 fluorescence intensity (a.u.)

Fill blank: measured binding signal of the sequence TCAGGATGACTCGAAGTCGAATCCGCGTAATACGCTGGCGCGGAGTCACCTAGTGCAG is ____.
3370 fluorescence intensity (a.u.)
